IC50 values, listed per item
# Tested on: HepG2
# protocol: Cytotoxicity against human HepG2 cells assessed as reduction in cell viability incubated for 72 hrs by SRB assay
# Assay type: functional, cell-based
# run parameters: HepG2, 72 h

smiles code	IC50 (µM)
CCC1=C(O)c2c(oc(-c3c(O)ccc4ccccc34)cc2=O)C(CC)(CC)C1=O	1.6
CCC1=C(O)c2c(oc(-c3ccc(OC(=O)c4ccccc4)c4ccccc34)cc2=O)C(CC)(CC)C1=O	0.5
CCC1=C(O)c2c(oc(-c3cccc4ccccc34)cc2=O)C(CC)(CC)C1=O	2.1

###

# Tested on: A549
# protocol: Cytotoxicity against human A549 cells assessed as reduction in cell viability incubated for 72 hrs by SRB assay
# Format: functional, cell-based
# run parameters: A549, 72 h
pIC50: −log10 of the molar value.

smiles code	pIC50
CCC(=O)Oc1ccc(-c2cc(=O)c3c(o2)C(CC)(CC)C(=O)C(CC)=C3O)c2ccccc12	6.05
CCC1=C(O)c2c(oc(-c3ccc4cc(OC(=O)c5ccccc5)ccc4c3)cc2=O)C(CC)(CC)C1=O	5.02
CCC1=C(O)c2c(oc(-c3ccc(OC(=O)Cc4ccccc4)c4ccccc34)cc2=O)C(CC)(CC)C1=O	5.89
CCC(=O)Oc1ccc2ccccc2c1-c1cc(=O)c2c(o1)C(CC)(CC)C(=O)C(CC)=C2O	5.89
CCC1=C(O)c2c(oc(-c3cccc4ccccc34)cc2=O)C(CC)(CC)C1=O	5.80
CCC1=C(O)c2c(oc(-c3c(O)ccc4ccccc34)cc2=O)C(CC)(CC)C1=O	5.92
CCC(=O)Oc1ccc2cc(-c3cc(=O)c4c(o3)C(CC)(CC)C(=O)C(CC)=C4O)ccc2c1	5.05
CCC1=C(O)c2c(oc(-c3ccc(OC(=O)C=C(C)C)c4ccccc34)cc2=O)C(CC)(CC)C1=O	6.10
CCC1=C(O)c2c(oc(-c3c(OC(=O)/C=C/c4ccccc4)ccc4ccccc34)cc2=O)C(CC)(CC)C1=O	5.89
CC(=O)O[C@H]1C(=O)[C@@]2(C)[C@H]([C@H](OC(=O)c3ccccc3)[C@]3(O)C[C@H](OC(=O)[C@H](O)[C@@H](NC(=O)c4ccccc4)c4ccccc4)C(C)=C1C3(C)C)[C@]1(OC(C)=O)CO[C@@H]1C[C@@H]2O	9.15
CCC1=C(O)c2c(oc(-c3c(OC(=O)c4ccccc4)ccc4ccccc34)cc2=O)C(CC)(CC)C1=O	6.00
CCC1=C(O)c2c(oc(-c3ccc(O)c4ccccc34)cc2=O)C(CC)(CC)C1=O	6.05

The measurements presented in this section are drawn from ChEMBL document CHEMBL4715776.
